- protocol text: APR_HepG2_MitoMembPot_24hr: Apredica 24-hour HepG2 Assay for Mitochondrial Membrane Potential (AID 2282911)
- measurement conditions: imaging, actives raise or lower the signal
Activity calls are given as the source filed them. The calls were made as follows: active = hit-call score of the fitted dose curve at least 0.9, where 1 is the maximum; inactive = score below 0.9.
Assign a class; possible classes are 1 (yes) for active, 0 (no) for inactive

CCOP(=S)(OCC)SCSC(C)(C)C = 1 (yes)
O=C(N[C@H]1CN2CCC1CC2)c1cc2ccoc2cn1 = 1 (yes)
C[C@]12CCC(=O)C=C1CC[C@@H]1[C@@H]2CC[C@@]2(C)[C@H]1CC[C@]2(C)O = 0 (no)
CCOC(=O)C(O)(c1ccc(Cl)cc1)c1ccc(Cl)cc1 = 1 (yes)
Nc1ccc(-c2ccc(N)cc2)cc1 = 0 (no)

From here, focus on the item given below.
Qu. Query: recorded result category for O=C(O)C(F)(F)C(F)(F)C(F)(F)C(F)(F)C(F)(F)C(F)(F)C(F)(F)C(F)(F)C(F)(F)F in this test
Ans. 0 (no)
